- METHOD SUMMARY: Solubility in aqueous media
- Format: physicochemical
- CONDITION DESCRIPTION: Sörensen buffer, aqueous buffer, thermodynamic from solid; Sörensen pH 10; pH of the saturated solution 9.9
MEASUREMENT KIND: solubility (µg/mL)

{"columns": ["SMILES NOTATION", "OBS VALUE"],
 "data": [
  ["CC[C@@H]1C(=O)N(C)c2cnc(Nc3ccc(C(=O)N[C@H]4CC[C@H](N5CCN(CC6CC6)CC5)CC4)cc3OC)nc2N1C(C)C", 7]
]}

---

- METHOD SUMMARY: Solubility in aqueous media
- Assay type: physicochemical
- CONDITION DESCRIPTION: pH 11.7, aqueous buffer, thermodynamic from solid; 0.01 N NaOH; pH of the saturated solution 11.7
MEASUREMENT KIND: solubility

{"columns": ["SMILES NOTATION", "MEASUREMENT KIND", "OBS VALUE"],
 "data": [
  ["CC[C@@H]1C(=O)N(C)c2cnc(Nc3ccc(C(=O)N[C@H]4CC[C@H](N5CCN(CC6CC6)CC5)CC4)cc3OC)nc2N1C(C)C", "solubility", "8 µg/mL"]
]}

---

- METHOD SUMMARY: Solubility in aqueous media
- Type: physicochemical
- CONDITION DESCRIPTION: pH 1.1, simulated gastric fluid, thermodynamic from solid; medium 0.1 N HCl; pH of the saturated solution 1.1

{"columns": ["SMILES NOTATION", "solubility"],
 "data": [
  ["CC[C@@H]1C(=O)N(C)c2cnc(Nc3ccc(C(=O)N[C@H]4CC[C@H](N5CCN(CC6CC6)CC5)CC4)cc3OC)nc2N1C(C)C", "> 10000 µg/mL"]
]}

---

- METHOD SUMMARY: Solubility in aqueous media
- Format: physicochemical
- CONDITION DESCRIPTION: aqueous buffer, thermodynamic from solid; McIlvaine buffer pH 4.0; pH of the saturated solution 4.6
MEASUREMENT KIND: solubility

{"columns": ["COMPOUND", "MEASUREMENT KIND", "OBS VALUE"],
 "data": [
  ["CC[C@@H]1C(=O)N(C)c2cnc(Nc3ccc(C(=O)N[C@H]4CC[C@H](N5CCN(CC6CC6)CC5)CC4)cc3OC)nc2N1C(C)C [formula (I)]", "solubility", "> 10 mg/mL"]
]}

---

- METHOD SUMMARY: Solubility in aqueous media
- Format: physicochemical
- CONDITION DESCRIPTION: pH 12.8, aqueous buffer, thermodynamic from solid; 0.01 N NaOH (second line); pH of the saturated solution 12.8
MEASUREMENT KIND: solubility

{"columns": ["SMILES NOTATION", "OBS VALUE"],
 "data": [
  ["CC[C@@H]1C(=O)N(C)c2cnc(Nc3ccc(C(=O)N[C@H]4CC[C@H](N5CCN(CC6CC6)CC5)CC4)cc3OC)nc2N1C(C)C", "3 µg/mL"]
]}

---

- METHOD SUMMARY: Solubility in aqueous media
- Format: physicochemical
- CONDITION DESCRIPTION: phosphate buffer, aqueous buffer, thermodynamic from solid; Phosphate pH 8.0; pH of the saturated solution 8.1

{"columns": ["SMILES NOTATION", "solubility [µg/mL]"],
 "data": [
  ["CC[C@@H]1C(=O)N(C)c2cnc(Nc3ccc(C(=O)N[C@H]4CC[C@H](N5CCN(CC6CC6)CC5)CC4)cc3OC)nc2N1C(C)C", 36]
]}
